Molecular target: T1, human PD-L1 on CHO-K1 cells overexpressing human PD-L1 (human, UniProt Q9NZQ7 19-290)
T1 construct: whole, on cells; also called CHO-K1/hPD-L1; CHO-K1-hPD-L1
T1 sequence (Q9NZQ7 19-290): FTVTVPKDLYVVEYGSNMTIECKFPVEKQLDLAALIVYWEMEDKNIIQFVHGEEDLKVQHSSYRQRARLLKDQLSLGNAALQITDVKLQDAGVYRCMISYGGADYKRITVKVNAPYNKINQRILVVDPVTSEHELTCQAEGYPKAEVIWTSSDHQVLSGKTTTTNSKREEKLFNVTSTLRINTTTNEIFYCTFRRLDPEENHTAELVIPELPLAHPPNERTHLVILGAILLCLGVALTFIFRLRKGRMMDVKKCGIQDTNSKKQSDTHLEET
Experiment: flow cytometry on CHO-K1 cells overexpressing human PD-L1 (CHO-K1/hPD-L1) [continued) D]
Method: In the example, in order to study the in vitro binding activity of the PD-L1 antigen-binding protein to human/cynomolgus monkey PD-L1, cell-level binding experiments were performed using CHO-K1 cell strains overexpressing human PD-L1 (CHO-K1/hPD-L1, GenScript, M00543) or CHO-K1 cell strains overexpressing cynomolgus monkey PD-L1 (CHO-K1/cynoPD-L1, GenScript, M00573). […] Fluorescence signal values were read using a BD FACS CANTOII. […]
Entries annotated with measured Maximum MFI

binder | result.units | Maximum MFI
PR005878 (antibody, human IgG1, V domains shown, The HC entry is used) VH: QVQLVESGGGVVQPGMSLRLSCAASGFTFSSYGMYWVRQAPGKGQEWVASIRYTGTEKHYADSVKGRFTISRDNSKNTLYLEMNSLRVEDTAVYYCAKNRALFGVIPDDSDIRGQGTMVTVSS | MFI | 379000
PR005872 (antibody, human IgG1, V domains shown, The HC entry is used) VH: QVQLVESGGGVVQPGMSLRLSCAASGFTFSSYGMYWVRQAPGKGQEWVASIRYTGTEKHYADSVKGRFTISRDNSKNTLYLEMNSLRVEDTAVYYCAKNRAIFGVIPDDSDIRGQGTMVTVSS | MFI | 385000
PR002082 (antibody, human IgG1, V domains shown, HCAb; also called PTM variant of PR000960 (N28T, N31S)) VH: QVQLVESGGGVVQPGMSLRLSCAASGFTFSSYGMYWVRQAPGKGQEWVAIIWYDGTKKHYADSVKGRFTISRDNSKNTLYLEMNSLRVEDTAVYYCAKNRAIFGVVPDASDIRGQGTMVTVSS | MFI | 387000
PR005875 (antibody, human IgG1, V domains shown, The HC entry is used) VH: QVQLVESGGGVVQPGMSLRLSCAASGFTFSSYGMYWVRQAPGKGQEWVASIRYTGTEKHYADSVKGRFTISRDNSKNTLYLEMNSLRVEDTAVYYCAKNRALFGVIPDASDIRGQGTMVTVSS | MFI | 372000
